# Tested on: MOLT-4 leukemia
# test-summary: NCI tumour cell line growth inhibition, 48 h
assay-readout: log10 of TGI (log10 of the value in µM)

| compound | assay-readout | assay-value |
| --- | --- | --- |
| COc1cccc(C2C3=C(COC3=O)Oc3cc4c(cc32)OCO4)c1 (stereo unspecified) | log10 of TGI | 1.15 |
| O=C1/C(=C/c2ccc(Cl)cc2)N=C(c2ccccc2)N1c1ccc(S(=O)(=O)Nc2nccs2)cc1 | log10 of TGI | 1.92 |
| CC(C)NCCC(O)c1cc2ccccc2o1 (stereo unspecified) | log10 of TGI | 1.69 |
| O=C(c1ccccc1)c1nc2ccc(C(F)(F)F)cc2[n+]([O-])c1C(F)(F)F | log10 of TGI | 1.87 |
| C#Cc1cccc(Nc2nc3ccc([N+](=O)[O-])cc3nc2Nc2cccc(C#C)c2)c1 | log10 of TGI | 0.01 |
| COc1cc2nc3cc([N+](=O)[O-])ccc3c(NCCCNCC(C)(C)O)c2cc1OC | log10 of TGI | 0.82 |
| O=C(Nc1ccccc1F)c1cc2ccc(O)cc2oc1=Nc1cccc(C(F)(F)F)c1 | log10 of TGI | 1.83 |
| COc1ccc(-c2ccc(/C=N/n3c(C)nn(CN4CCN(C)CC4)c3=S)o2)c([N+](=O)[O-])c1 | log10 of TGI | 1.79 |
| COc1cc([C@@H]2c3cc4c(cc3[C@@H](NC(=O)c3cccc(F)c3)C3COC(=O)[C@@H]32)OCO4)cc(OC)c1O (stereo partly specified) | log10 of TGI | 0.03 |
